Each recorded value in this set is attributed to patent US5652237A.

Provide the reported IC50 of each item.
experimental target: human C1 r (Homo sapiens)
Construct: purchased Enzyme Research Labs (South Bend, Ind.)
Sequence (P00736 464-705 limits assumed): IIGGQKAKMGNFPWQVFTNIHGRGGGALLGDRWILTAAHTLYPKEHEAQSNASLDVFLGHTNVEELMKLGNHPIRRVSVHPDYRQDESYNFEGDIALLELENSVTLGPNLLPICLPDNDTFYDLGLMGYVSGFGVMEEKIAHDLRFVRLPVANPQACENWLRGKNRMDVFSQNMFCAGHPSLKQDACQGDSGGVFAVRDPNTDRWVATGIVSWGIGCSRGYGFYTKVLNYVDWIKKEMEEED
Sequence (P00736 18-463 partner limits assumed): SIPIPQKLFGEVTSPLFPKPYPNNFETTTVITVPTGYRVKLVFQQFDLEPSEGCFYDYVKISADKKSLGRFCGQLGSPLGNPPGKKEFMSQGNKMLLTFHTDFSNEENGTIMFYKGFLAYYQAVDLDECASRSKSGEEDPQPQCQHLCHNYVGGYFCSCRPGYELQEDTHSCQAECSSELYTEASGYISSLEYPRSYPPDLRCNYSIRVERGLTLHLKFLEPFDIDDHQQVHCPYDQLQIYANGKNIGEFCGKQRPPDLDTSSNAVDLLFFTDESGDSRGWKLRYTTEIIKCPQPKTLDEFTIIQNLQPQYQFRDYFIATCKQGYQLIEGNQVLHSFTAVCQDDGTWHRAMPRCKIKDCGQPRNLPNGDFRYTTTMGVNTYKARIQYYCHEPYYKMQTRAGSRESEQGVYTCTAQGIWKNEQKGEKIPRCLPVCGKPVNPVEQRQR
test summary: Assay of C1r Enzyme Activity (Assay 1), thioester substrate z-Gly-Arg-S-Bzl with DTNB
Format: biochemical
condition notes: Table 1 and text, pH 7.4-7.5, read-out: Inhibition of Clr Assay 1 (IC50)
Just the number please, in µM, no unit attached.

What value of measured IC50 is listed for "CN(C(=O)c1cccnc1)c1nc2ccccc2c(=O)o1" ?
40

Query "O=c1oc(Nc2ccccc2I)nc2cc(Cl)ccc12" next
0.7

Now the same for "CCCCc1ccc(C(=O)N(C)c2nc3ccccc3c(=O)o2)cc1"
16

Could you do the same for "O=c1oc(Nc2ccccc2Cl)nc2cc([N+](=O)[O-])ccc12" , please?
1.4

Can you check "CN(c1nc2ccccc2c(=O)o1)c1ccccc1I" next?
1.4

Repeat for the following molecule: "Cc1ccc2nc(N(C)C(=O)c3ccccc3I)oc(=O)c2c1"
1.3

Next molecule: "CN(C(=O)c1c(Cl)cccc1Cl)c1nc2ccccc2c(=O)o1"
8

Entry to check: "Cc1ccc2c(=O)oc(N(C)C(=O)c3ccccc3I)nc2c1"
2.8

One more molecule: "O=c1oc(Nc2ccccc2Cl)nc2ccccc12"
6.5

What about "O=c1oc(Nc2ccccc2I)nc2cc([N+](=O)[O-])ccc12" ?
0.75

Field entry: "CN(C(=O)c1ccccc1Cl)c1nc2ccccc2c(=O)o1"
16

Subsequent entry: "O=c1oc(Nc2ccccc2Cl)nc2cc(Cl)c(Cl)cc12"
2

Cool, now O=c1oc(Nc2c(Cl)cccc2Cl)nc2ccccc12 [Example 7]
1.3

And "O=c1oc(Nc2ccccc2I)nc2cc(Cl)c(Cl)cc12" ?
0.5

Now try "CN(C(=O)c1ccccc1I)c1nc2cc(Cl)ccc2c(=O)o1" .
18

What would you report for "CN(C(=O)c1ccccc1I)c1nc2cc(Cl)c(Cl)cc2c(=O)o1" ?
8

* * *

experimental target: human C1 r (Homo sapiens)
Construct: purchased Enzyme Research Labs (South Bend, Ind.)
test summary: Assay of C1r Enzyme Activity (Assay 1), thioester substrate z-Gly-Arg-S-Bzl with DTNB
Format: biochemical
condition notes: Table 1 and text, pH 7.4-7.5, read-out: Inhibition of Clr Assay 1 (IC50)
metric: IC50

For the compound CN(C(=O)c1ccc(I)cc1)c1nc2ccccc2c(=O)o1 [Example 38] , what IC50 is on record?
33 µM

What do we get for O=c1oc(Nc2ccc(I)cc2)nc2ccccc12 [Example 6] ?
> 67 µM

Now this one: O=c1oc(Nc2ccccc2I)nc2cccc(Cl)c12 [Example 21]
14.5 µM

Try this compound too: COc1ccc2c(=O)oc(N(C)C(=O)c3ccccc3I)nc2c1 [Example 44]
> 66 µM

CN(C(=O)c1ccccc1C(F)(F)F)c1nc2ccccc2c(=O)o1 [Example 16] , same question.
1.5 µM

Field entry: Cc1cccc2nc(N(C)C(=O)c3ccccc3I)oc(=O)c12 [Example 39]
> 66 µM

Now consider CN(C(=O)c1cccc(I)c1)c1nc2ccccc2c(=O)o1 [Example 37] and answer again.
20 µM

Request: CCN(C(=O)c1ccccc1I)c1nc2ccccc2c(=O)o1 [Example 18]
8.3 µM

Repeat with O=c1oc(Nc2ccccc2I)nc2cc(F)c(F)cc12 [Example 46]
7 µM

Same question for O=c1oc(Nc2ccccc2OC(F)(F)F)nc2ccccc12 [Example 9] please.
4 µM
